Source listed as patent US20220380463A1.

Biological target: T1, Cynomolgus CD3εδ Fc heterodimer (Cy CD3ε Fc / CD3δ Fc-HIS) (cynomolgus, UniProt Q95LI8 22-100)
T1 chain 1: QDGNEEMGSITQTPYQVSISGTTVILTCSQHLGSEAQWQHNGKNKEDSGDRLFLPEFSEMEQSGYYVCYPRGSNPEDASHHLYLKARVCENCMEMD
T1 chain 2: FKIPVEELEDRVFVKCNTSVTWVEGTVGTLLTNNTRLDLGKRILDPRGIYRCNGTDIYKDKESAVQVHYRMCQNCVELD
Experiment: BLI (Octet), IgG on AHC sensor, pH 6.0
ASSAY METRIC: koff (s⁻¹)
Give the value in s⁻¹ but do not write s⁻¹ after it.

// query Given the binder SAD10319_P05_C01 (ADI-57403) (antibody, V domains shown, IgG; also called Ab130) VH: QVQLVQSGAEVKKPGASVKVSCKASGYTFTDDAMHWVRQAPGQRLEWMGWIDAGTGNTYYSQKFQGRVTITRDTSASTAYMELSSLRSEDTAVYYCAHDAYGHYFYDVWGQGTLVTVSS VL: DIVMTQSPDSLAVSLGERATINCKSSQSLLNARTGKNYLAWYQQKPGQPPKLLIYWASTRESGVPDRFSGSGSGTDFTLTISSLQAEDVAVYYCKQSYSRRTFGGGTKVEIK , what is its reported koff?
// result 0.013

// query Given the binder SAD10319_P04_H12 (ADI-57344) (antibody, V domains shown, IgG; also called Ab45) VH: QVQLVQSGAEVKKPGASVKVSCKASGYTFTSDHMHWVRQAPGQRLEWMGSINAGTGATKYSQKFQGRVTITRDTSASTAYMELSSLRSEDTAVYYCARDAYGHYFYDHWGQGTLVTVSS VL: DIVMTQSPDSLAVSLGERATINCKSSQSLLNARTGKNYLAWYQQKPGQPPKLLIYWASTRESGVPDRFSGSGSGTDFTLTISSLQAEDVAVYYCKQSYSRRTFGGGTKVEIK , what is its reported koff?
// result 0.0047
